A set of molecules tested on Tyrosine-protein kinase JAK1 (Homo sapiens), with measured IC50:
READOUT NAME: IC50 (µM)

Sample answers from the record:
>  <STRUCTURE STRING>
CC(=O)N[C@@H]1CCc2ccc(Oc3cnc4[nH]cc(C(=O)N[C@@H](C(=O)N5CC(C#N)C5)C5CC5)c4n3)cc21

>  <RESULT NUMBER>
0.262

$$$$
>  <STRUCTURE STRING>
CC(=O)N[C@@H]1CCc2ccc(Oc3cnc4[nH]cc(C(=O)NC(C)C)c4n3)cc21

>  <RESULT NUMBER>
6.3

$$$$
>  <STRUCTURE STRING>
CC(=O)N[C@@H]1CCc2ccc(Oc3cnc4[nH]cc(C(=O)N[C@H](C)C5CC5)c4n3)cc21

>  <RESULT NUMBER>
2.08

$$$$

(A) CC(=O)N[C@@H]1CCc2ccc(Oc3cnc4[nH]cc(C(=O)N[C@@H](C)C5CC5)c4n3)cc21
(B) CC(C)NC(=O)c1c[nH]c2ncc(Oc3cccc(C#N)c3)nc12
[ask] Select the item with the higher value of IC50 from the options A and B listed. Respond using the label that marks the chosen record.
[reply] B

Source listed as ChEMBL document CHEMBL2375291.
